System: SpyCas9 (Streptococcus pyogenes serotype M1, UniProt Q99ZW2) | Read-out: Kd
Sequence (Q99ZW2 whole entry): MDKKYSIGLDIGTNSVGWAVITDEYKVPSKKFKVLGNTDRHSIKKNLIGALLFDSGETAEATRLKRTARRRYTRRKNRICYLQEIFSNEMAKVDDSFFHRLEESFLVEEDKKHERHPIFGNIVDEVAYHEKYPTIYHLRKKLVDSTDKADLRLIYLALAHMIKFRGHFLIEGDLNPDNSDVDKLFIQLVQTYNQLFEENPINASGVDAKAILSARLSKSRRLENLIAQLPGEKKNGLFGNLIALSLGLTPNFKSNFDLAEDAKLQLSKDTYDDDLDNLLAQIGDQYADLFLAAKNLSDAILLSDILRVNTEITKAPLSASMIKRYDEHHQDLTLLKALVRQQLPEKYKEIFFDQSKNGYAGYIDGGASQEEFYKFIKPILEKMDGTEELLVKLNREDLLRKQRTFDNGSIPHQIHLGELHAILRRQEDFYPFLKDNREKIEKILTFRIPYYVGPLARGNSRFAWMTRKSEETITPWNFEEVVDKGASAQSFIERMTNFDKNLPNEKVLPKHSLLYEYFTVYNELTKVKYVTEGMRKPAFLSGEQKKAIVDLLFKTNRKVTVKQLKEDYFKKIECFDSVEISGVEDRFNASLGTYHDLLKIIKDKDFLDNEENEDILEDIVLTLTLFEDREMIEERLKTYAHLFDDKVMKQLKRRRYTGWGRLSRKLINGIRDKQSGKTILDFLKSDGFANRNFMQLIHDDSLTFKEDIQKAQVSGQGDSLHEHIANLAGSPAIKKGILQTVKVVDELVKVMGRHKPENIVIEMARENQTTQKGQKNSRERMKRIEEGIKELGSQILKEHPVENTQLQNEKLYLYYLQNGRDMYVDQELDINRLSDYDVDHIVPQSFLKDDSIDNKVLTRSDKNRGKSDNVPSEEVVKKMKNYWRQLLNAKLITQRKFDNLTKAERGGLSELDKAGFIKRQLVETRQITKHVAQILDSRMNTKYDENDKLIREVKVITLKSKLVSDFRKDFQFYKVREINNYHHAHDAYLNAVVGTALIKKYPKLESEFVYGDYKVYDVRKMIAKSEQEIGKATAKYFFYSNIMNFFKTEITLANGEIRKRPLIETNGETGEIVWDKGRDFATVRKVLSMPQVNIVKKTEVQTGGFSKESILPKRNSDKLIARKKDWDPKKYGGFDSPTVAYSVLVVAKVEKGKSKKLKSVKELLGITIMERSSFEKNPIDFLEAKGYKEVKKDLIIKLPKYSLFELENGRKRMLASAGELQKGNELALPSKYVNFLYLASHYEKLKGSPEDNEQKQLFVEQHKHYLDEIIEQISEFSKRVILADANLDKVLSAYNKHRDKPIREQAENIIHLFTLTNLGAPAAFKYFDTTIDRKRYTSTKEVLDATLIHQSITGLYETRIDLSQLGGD

The reported Kd value, SpyCas9 (Streptococcus pyogenes serotype M1, UniProt Q99ZW2), for CCCCC(CC)COC(=O)CC(C(=O)OCC(CC)CCCC)S(=O)(=O)O (centres unmarked) [Docusate] reads 12.8 to 56.4 µM

---
The reported Kd value, SpyCas9 (Streptococcus pyogenes serotype M1, UniProt Q99ZW2), for COc1cccc2c1C(=O)c1c(O)c3c(c(O)c1C2=O)C[C@@](O)(C(=O)CO)C[C@@H]3O[C@H]1C[C@H](N)[C@@H](O)[C@H](C)O1 [Epirubicin] reads > 1000 µM

* * *

# key: entry, value: IC50
experimentalTarget: SpyCas9 (Streptococcus pyogenes serotype M1)
testSummary: Two-plasmid-based bacterial survival assay
Assay type: cell-based
measurementContext: IC50, bacteria-based assay, Spy Cas9; bacterial survival assay using pCas and pTarget-sgSSEA plasmids, E. coli MG1655

Before answering, review these 2 worked examples.
The reported value for CC1(C)[C@@H](OC(=O)CCC(=O)O)CC[C@]2(C)[C@H]3C(=O)C=C4[C@@H]5C[C@@](C)(C(=O)O)CC[C@]5(C)CC[C@@]4(C)[C@]3(C)CC[C@@H]12 [Carbenoxolone] in terms of IC50 is ~200 µM

The reported value for O=C(O)c1cc2ccccc2c(Cc2c(O)c(C(=O)O)cc3ccccc23)c1O [Pamoic acid] in terms of IC50 is 200 to 400 µM

// next item, IC50 requested
The reported value for COc1cccc2c1C(=O)c1c(O)c3c(c(O)c1C2=O)C[C@@](O)(C(=O)CO)C[C@@H]3O[C@H]1C[C@H](N)[C@@H](O)[C@H](C)O1 [Epirubicin] in terms of IC50 is 3.13 to 6.25 µM

* * *

# key: entry, value: IC50
experimentalTarget: SauCas9 (Staphylococcus aureus)
Sequence (J7RUA5 1-1053): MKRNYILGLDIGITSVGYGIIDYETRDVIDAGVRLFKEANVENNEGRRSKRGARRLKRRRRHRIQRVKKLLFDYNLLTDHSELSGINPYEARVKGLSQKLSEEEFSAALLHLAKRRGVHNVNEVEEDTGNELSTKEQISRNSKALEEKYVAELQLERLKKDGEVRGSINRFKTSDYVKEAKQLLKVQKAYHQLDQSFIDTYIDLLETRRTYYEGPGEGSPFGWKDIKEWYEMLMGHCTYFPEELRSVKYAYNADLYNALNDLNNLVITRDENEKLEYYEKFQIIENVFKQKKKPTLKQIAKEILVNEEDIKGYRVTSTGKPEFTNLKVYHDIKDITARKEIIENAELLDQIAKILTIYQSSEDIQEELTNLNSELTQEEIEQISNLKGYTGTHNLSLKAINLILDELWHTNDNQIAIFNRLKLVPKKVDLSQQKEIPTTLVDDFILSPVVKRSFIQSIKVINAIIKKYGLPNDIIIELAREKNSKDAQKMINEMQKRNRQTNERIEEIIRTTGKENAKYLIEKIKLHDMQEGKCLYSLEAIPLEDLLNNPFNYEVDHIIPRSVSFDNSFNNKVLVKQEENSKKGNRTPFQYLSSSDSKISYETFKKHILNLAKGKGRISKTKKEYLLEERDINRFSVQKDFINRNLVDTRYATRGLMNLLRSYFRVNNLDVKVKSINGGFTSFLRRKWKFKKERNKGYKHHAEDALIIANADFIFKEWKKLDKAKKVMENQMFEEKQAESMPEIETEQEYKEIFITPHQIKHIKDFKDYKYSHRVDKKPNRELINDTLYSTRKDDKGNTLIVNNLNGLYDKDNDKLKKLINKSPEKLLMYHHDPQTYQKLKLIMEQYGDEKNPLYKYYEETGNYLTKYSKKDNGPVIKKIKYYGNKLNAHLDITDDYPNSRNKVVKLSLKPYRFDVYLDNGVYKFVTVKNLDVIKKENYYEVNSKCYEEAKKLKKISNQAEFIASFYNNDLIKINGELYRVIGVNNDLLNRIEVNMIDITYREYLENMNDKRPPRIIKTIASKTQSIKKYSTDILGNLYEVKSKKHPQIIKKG
Format: cell-based

The reported value for O=C(O)c1cc2ccccc2c(Cc2c(O)c(C(=O)O)cc3ccccc23)c1O in terms of IC50 is 250 to 500 µM

The reported value for COc1cccc2c1C(=O)c1c(O)c3c(c(O)c1C2=O)C[C@@](O)(C(=O)CO)C[C@@H]3O[C@H]1C[C@H](N)[C@@H](O)[C@H](C)O1 [Epirubicin] in terms of IC50 is ~6.25 µM

The reported value for CC1(C)[C@@H](OC(=O)CCC(=O)O)CC[C@]2(C)[C@H]3C(=O)C=C4[C@@H]5C[C@@](C)(C(=O)O)CC[C@]5(C)CC[C@@]4(C)[C@]3(C)CC[C@@H]12 in terms of IC50 is 100 to 200 µM
